# System: oilseed rape (Brassica napus)
# protocol-notes: Test C preemergence
# Format: in vivo
# experimental-conditions: 31 g ai/ha, scale 0 to 100, 0 is no effect, 100 is complete control
assay-readout: Plant response rating, Oilseed Rape

Solved entries:
O=c1cccc(Oc2ncc(Cl)cn2)n1-c1ccc(C(F)(F)F)cn1 [Compound 7] :: 35
O=c1cccc(Oc2ncc(Cl)cn2)n1-c1ncc(Cl)cn1 [Compound 6] :: 90
O=c1cccc(Oc2ncc(Cl)cn2)n1-c1ccc(C(F)(F)F)cc1 [Compound 10] :: 10

API: the following record is the query input.
For the compound O=c1cccc(Oc2ncc(Cl)cn2)n1-c1ccc(Cl)cc1 [Compound 1] , what Plant response rating, Oilseed Rape is on record?
0

====

# Tested on: waterhemp (common waterhemp, Amaranthus rudis)
# protocol-notes: Test C preemergence
# Assay type: in vivo
# experimental-conditions: 31 g ai/ha, scale 0 to 100, 0 is no effect, 100 is complete control
# Text: […]
assay-readout: Plant response rating, Waterhemp
Quick one: just the number, no unit, thanks!

O=c1cccc(Oc2ncc(Cl)cn2)n1-c1ccc(C(F)(F)F)cn1 [Compound 7] :: 85

For the compound O=c1cccc(Oc2ncc(Cl)cn2)n1-c1ncc(Cl)cn1 [Compound 6] , what Plant response rating, Waterhemp is on record?
90

For the compound O=c1cccc(Oc2ncc(Cl)cn2)n1-c1ccc(Cl)cc1 [Compound 1] , what Plant response rating, Waterhemp is on record?
65

For the compound O=c1cccc(Oc2ncc(Cl)cn2)n1-c1ccc(C(F)(F)F)cc1 [Compound 10] , what Plant response rating, Waterhemp is on record?
95

====

Measured Plant response rating, Waterhemp accompanies every entry in the list below.
# Test system: waterhemp (common waterhemp, Amaranthus rudis)
# protocol-notes: Test C postemergence
# Type: in vivo
# experimental-conditions: 16 g ai/ha, scale 0 to 100, 0 is no effect, 100 is complete control
Quick one: just the number, no unit, thanks!

O=c1cccc(Oc2ncc(Cl)cn2)n1-c1ccc(Cl)cc1 [Compound 1] :: 25
O=c1cccc(Oc2ncc(Cl)cn2)n1-c1ncc(Cl)cn1 [Compound 6] :: 60
O=c1cccc(Oc2ncc(Cl)cn2)n1-c1ccc(C(F)(F)F)cc1 [Compound 10] :: 75

For the compound O=c1cccc(Oc2ncc(Cl)cn2)n1-c1ccc(C(F)(F)F)cn1 [Compound 7] , what Plant response rating, Waterhemp is on record?
60

====

# Tested on: pigweed (Amaranthus retroflexus)
# protocol-notes: Test C postemergence
# Assay type: in vivo
# experimental-conditions: 125 g ai/ha, scale 0 to 100, 0 is no effect, 100 is complete control
Measured Plant response rating, Pigweed accompanies every entry in the list below.
Quick one: just the number, no unit, thanks!

O=c1cccc(Oc2ncc(Cl)cn2)n1-c1ccc(C(F)(F)F)cn1 :: 80
O=c1cccc(Oc2ncc(Cl)cn2)n1-c1ccc(C(F)(F)F)cc1 :: 90
O=c1cccc(Oc2ncc(Cl)cn2)n1-c1ccc(Cl)cc1 :: 80

API: the following record is the query input.
For the molecule `O=c1cccc(Oc2ncc(Cl)cn2)n1-c1ncc(Cl)cn1` , what Plant response rating, Pigweed is on record?
85

====

Measured Plant response rating, Ragweed accompanies every entry in the list below.
# System: ragweed (common ragweed, Ambrosia elatior)
# protocol-notes: Test C postemergence
# Format: in vivo
# experimental-conditions: 31 g ai/ha, scale 0 to 100, 0 is no effect, 100 is complete control
Quick one: just the number, no unit, thanks!

Solved entries:
O=c1cccc(Oc2ncc(Cl)cn2)n1-c1ccc(C(F)(F)F)cc1 :: 25
O=c1cccc(Oc2ncc(Cl)cn2)n1-c1ccc(C(F)(F)F)cn1 :: 30
O=c1cccc(Oc2ncc(Cl)cn2)n1-c1ccc(Cl)cc1 :: 70

Requested read-out Plant response rating, Ragweed, target or system ragweed (common ragweed, Ambrosia elatior), entry `O=c1cccc(Oc2ncc(Cl)cn2)n1-c1ncc(Cl)cn1`
45

====

# System: ragweed (common ragweed, Ambrosia elatior)
# protocol-notes: Test C postemergence
# Assay type: in vivo
# experimental-conditions: 125 g ai/ha, scale 0 to 100, 0 is no effect, 100 is complete control
assay-readout: Plant response rating, Ragweed
Quick one: just the number, no unit, thanks!

Solved entries:
O=c1cccc(Oc2ncc(Cl)cn2)n1-c1ccc(C(F)(F)F)cn1 :: 55
O=c1cccc(Oc2ncc(Cl)cn2)n1-c1ccc(Cl)cc1 :: 40
O=c1cccc(Oc2ncc(Cl)cn2)n1-c1ccc(C(F)(F)F)cc1 :: 65

API: the following record is the query input.
For the compound `O=c1cccc(Oc2ncc(Cl)cn2)n1-c1ncc(Cl)cn1` , what Plant response rating, Ragweed is on record?
70

====

# Tested on: ragweed (common ragweed, Ambrosia elatior)
# protocol-notes: Test C preemergence
# Format: in vivo
# experimental-conditions: 62 g ai/ha, scale 0 to 100, 0 is no effect, 100 is complete control
# From the text: […]
Measured Plant response rating, Ragweed accompanies every entry in the list below.
Quick one: just the number, no unit, thanks!

Solved entries:
O=c1cccc(Oc2ncc(Cl)cn2)n1-c1ccc(C(F)(F)F)cc1 :: 25
O=c1cccc(Oc2ncc(Cl)cn2)n1-c1ccc(C(F)(F)F)cn1 :: 50

For the molecule `O=c1cccc(Oc2ncc(Cl)cn2)n1-c1ccc(Cl)cc1` , what Plant response rating, Ragweed is on record?
10

For the molecule `O=c1cccc(Oc2ncc(Cl)cn2)n1-c1ncc(Cl)cn1` , what Plant response rating, Ragweed is on record?
70

====

# Tested on: wild oat (Avena fatua)
# protocol-notes: Test C postemergence
# Assay type: in vivo
# experimental-conditions: 16 g ai/ha, scale 0 to 100, 0 is no effect, 100 is complete control
assay-readout: Plant response rating, Oat, Wild
Quick one: just the number, no unit, thanks!

Solved entries:
O=c1cccc(Oc2ncc(Cl)cn2)n1-c1ccc(C(F)(F)F)cc1 [Compound 10] :: 0
O=c1cccc(Oc2ncc(Cl)cn2)n1-c1ccc(C(F)(F)F)cn1 [Compound 7] :: 0
O=c1cccc(Oc2ncc(Cl)cn2)n1-c1ncc(Cl)cn1 [Compound 6] :: 0

API: the following record is the query input.
For the compound O=c1cccc(Oc2ncc(Cl)cn2)n1-c1ccc(Cl)cc1 [Compound 1] , what Plant response rating, Oat, Wild is on record?
5

====

# Tested on: blackgrass (Alopecurus myosuroides)
# protocol-notes: Test C preemergence
# Type: in vivo
# experimental-conditions: 62 g ai/ha, scale 0 to 100, 0 is no effect, 100 is complete control
Measured Plant response rating, Blackgrass accompanies every entry in the list below.
Quick one: just the number, no unit, thanks!

Solved entries:
O=c1cccc(Oc2ncc(Cl)cn2)n1-c1ccc(C(F)(F)F)cn1 [Compound 7] :: 30
O=c1cccc(Oc2ncc(Cl)cn2)n1-c1ccc(C(F)(F)F)cc1 [Compound 10] :: 95
O=c1cccc(Oc2ncc(Cl)cn2)n1-c1ncc(Cl)cn1 [Compound 6] :: 5

API: the following record is the query input.
For the molecule O=c1cccc(Oc2ncc(Cl)cn2)n1-c1ccc(Cl)cc1 [Compound 1] , what Plant response rating, Blackgrass is on record?
25

====

Measured Plant response rating, Corn accompanies every entry in the list below.
# Test system: corn (Zea mays)
# protocol-notes: Test C postemergence
# Assay type: in vivo
# experimental-conditions: 16 g ai/ha, scale 0 to 100, 0 is no effect, 100 is complete control
Quick one: just the number, no unit, thanks!

For the molecule O=c1cccc(Oc2ncc(Cl)cn2)n1-c1ccc(C(F)(F)F)cn1 [Compound 7] , what Plant response rating, Corn is on record?
10

For the molecule O=c1cccc(Oc2ncc(Cl)cn2)n1-c1ccc(C(F)(F)F)cc1 [Compound 10] , what Plant response rating, Corn is on record?
20

For the molecule O=c1cccc(Oc2ncc(Cl)cn2)n1-c1ncc(Cl)cn1 [Compound 6] , what Plant response rating, Corn is on record?
5

For the molecule O=c1cccc(Oc2ncc(Cl)cn2)n1-c1ccc(Cl)cc1 [Compound 1] , what Plant response rating, Corn is on record?
5

====

# Test system: ducksalad (Heteranthera limosa)
# protocol-notes: Test B flooded paddy test
# Assay type: in vivo
# Design: key: 0 = no effect, 100 = complete control
# experimental-conditions: Flood, 250 g ai/ha applied to paddy water at 2-leaf stage; visually evaluated after 13 to 15 days; scale 0 (no effect) to 100 (complete control)
assay-readout: Plant response rating, Ducksalad
Quick one: just the number, no unit, thanks!

O=c1cccc(Oc2ncc(Cl)cn2)n1-c1ccc(F)cn1 :: 60
O=c1cccc(Oc2ncc(Cl)cn2)n1-c1ccc(Cl)cc1 :: 45
O=c1cccc(Oc2ncc(Cl)cn2)n1-c1cccc(OC(F)(F)F)c1 :: 0

For the compound `O=c1cccc(Oc2ncc(Cl)cn2)n1-c1ncc(Cl)cn1` , what Plant response rating, Ducksalad is on record?
80

For the compound `O=c1cccc(Oc2ncc(Cl)cn2)n1-c1ccc(C(F)(F)F)cc1` , what Plant response rating, Ducksalad is on record?
65

For the compound `O=c1cccc(Oc2ncc(Cl)cn2)n1-c1cccc(C(F)(F)F)c1` , what Plant response rating, Ducksalad is on record?
0

For the compound `O=c1cccc(Oc2ncc(Cl)cn2)n1-c1ncc(F)cn1` , what Plant response rating, Ducksalad is on record?
0
